molecular target: Trace amine-associated receptor 1 (Homo sapiens); test: blockers of beta-PEA-driven TAAR1 calcium signal – Fluo-8 calcium fluorescence, CHO RD-HGA16 cells, primary screen (AID 624466); conditions: CHO RD-HGA16 TAAR1, Fluo-8 calcium fluorescence, antagonist; at 3 µM; hits give high values;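 further: 0% = DMSO plus EC80 beta-PEA response and 100% = DMSO alone without agonist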
The campaign covered roughly 360,000 compounds. About 5,400 (1.5%) were called active. This is one part of a sample in which actives are shown more often than they occur.
Measured inhibition of individual entries
The reply should be a number in %, with the unit left off.

Form field inhibition, entry O=C(c1ccc(Cl)c(S(=O)(=O)N2CCCCC2)c1)N1CCCCCC1 : -4.7

Kindly note the recorded inhibition for CC(C)(C)n1nc(C2CC2)c(Br)c1NC(=O)c1ccccc1F , which is -16.1

The measured inhibition associated with COC(=O)[C@]12CCCCC=C1N(Cc1cccc3ccccc13)C(=O)[C@H](CC(=O)N1CCOCC1)C2 reads 34.8

inhibition reading for COC(=O)c1cc(NC(=O)c2cc(C(C)(C)C)nn2Cc2cccc(C)c2)ccc1N1CCOCC1 : 50.4

Next, consider the following compound.
Looking up CC(C)CNc1cccc2c1S(=O)(=O)N[C@H](CC(C)C)CO2 , I see its inhibition listed as -8.78

----------
target: Trace amine-associated receptor 1 (Homo sapiens) (UniProt Q96RJ0); assay: blockers of beta-PEA-driven TAAR1 calcium signal – Fluo-8 calcium fluorescence, CHO RD-HGA16 cells, primary screen (AID 624466); conditions: CHO RD-HGA16 TAAR1, Fluo-8 calcium fluorescence, antagonist; at 3 µM; hits give high values;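 further: 0% = DMSO plus EC80 beta-PEA response and 100% = DMSO alone without agonist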
Sequence (Q96RJ0 whole entry, looked up): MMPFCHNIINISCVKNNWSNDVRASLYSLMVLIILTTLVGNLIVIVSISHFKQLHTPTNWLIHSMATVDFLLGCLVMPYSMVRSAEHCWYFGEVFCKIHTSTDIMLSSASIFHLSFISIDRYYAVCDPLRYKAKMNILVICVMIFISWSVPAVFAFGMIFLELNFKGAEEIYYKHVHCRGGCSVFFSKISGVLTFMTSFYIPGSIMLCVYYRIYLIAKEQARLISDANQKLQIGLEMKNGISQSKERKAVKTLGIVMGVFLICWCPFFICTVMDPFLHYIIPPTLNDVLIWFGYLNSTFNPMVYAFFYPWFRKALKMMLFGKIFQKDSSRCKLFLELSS
The whole screen tested about 360,000 compounds, of which about 5,400 (1.5%) were called active. This excerpt belongs to a sample that is enriched for actives.
inhibition reference

The observed inhibition for C[C@@H]1CC2=C(C(=O)OC(C)(C)O2)[C@@H](C2CC2)O1 when tested with Trace amine-associated receptor 1 (Homo sapiens) (UniProt Q96RJ0) stands at -2.56% (inactive)

Simply: CCOc1cc(C(=O)N2CCc3cc(OC)c(OC)cc3C2)ccc1OC(F)F , Trace amine-associated receptor 1 (Homo sapiens) (UniProt Q96RJ0), inhibition = -21.9% (inactive)

Tested system Trace amine-associated receptor 1 (Homo sapiens) (UniProt Q96RJ0); inhibition recorded for CCCCn1c(SCC(=O)N2CCC(C(=O)OCC)CC2)nc2cc(S(N)(=O)=O)ccc21 was -5.42% (inactive)

For the compound CC(C)(C)C(c1nc2ccccc2[nH]1)n1c(Cc2csc3ccccc23)nc2ccccc21 (centres undefined) , the measured inhibition on Trace amine-associated receptor 1 (Homo sapiens) (UniProt Q96RJ0) was 11.6% (inactive)

Entry CCOC(=O)C1=C(C(=O)OCC)C2N(Cc3ccc(C#N)cc3)c3ccccc3[C@@]23C[C@@H](C(=O)OC)N(S(=O)(=O)c2ccc(F)cc2)C3=N1 (some centres undefined) , tested on Trace amine-associated receptor 1 (Homo sapiens) (UniProt Q96RJ0), has a reported inhibition of -16.3% (inactive)

Record CCOC(=O)[C@]12CCCC=C1N(CCC1=CCCCC1)C(=O)[C@H](CC(=O)NCCCCc1ccccc1)C2 / Trace amine-associated receptor 1 (Homo sapiens) (UniProt Q96RJ0), inhibition recorded as -5.96% (inactive)

// inhibition (Trace amine-associated receptor 1 (Homo sapiens) (UniProt Q96RJ0)) for CC1(C(=O)Nc2cccnc2)Cc2c(-c3ccccc3)ccnc2O1 (centres undefined) = -9.98% (inactive)

# c1ccc2c(c1)OCC(CNc1ncnc3nc[nH]c13)O2 (centres undefined) with Trace amine-associated receptor 1 (Homo sapiens) (UniProt Q96RJ0): inhibition is 105% (active)

Next:
Param item: CCOC(=O)Cn1c2c(n(-c3ccc(F)cc3)c1=O)C=C(c1ccccc1)[C@@H](C)C(C(=O)N(C)C1CCCCC1)=C2 ; param system: Trace amine-associated receptor 1 (Homo sapiens) (UniProt Q96RJ0); output inhibition: -25% (inactive)

Entry CCC(c1nc2ccccc2[nH]1)n1c(=O)c(-c2cccs2)nc2ccccc21 (centres undefined) , Trace amine-associated receptor 1 (Homo sapiens) (UniProt Q96RJ0) data, inhibition value: -2.04% (inactive)

Measured on Trace amine-associated receptor 1 (Homo sapiens) (UniProt Q96RJ0), Cc1cc(C)c(SCCc2ccncc2)c(C)c1 has a documented inhibition of 11.4% (inactive)

Here CCc1ccc(NC(=O)C(=O)N/N=C(\C)CC(=O)NCCOC)cc1 was tested on Trace amine-associated receptor 1 (Homo sapiens) (UniProt Q96RJ0), and its inhibition came to -6% (inactive)

Fill in: Trace amine-associated receptor 1 (Homo sapiens) (UniProt Q96RJ0) inhibition for C=C1C(=O)OC2C1CCC(C)=CCCC1(C)OC21 (centres undefined) = -17.7% (inactive)

Per the reported Trace amine-associated receptor 1 (Homo sapiens) (UniProt Q96RJ0) data, CCOC(=O)/C=C/c1ccccc1O has inhibition of -4.54% (inactive)
